Where do the numbers come from? From patent US20260248972A1.

Field: tissue uptake at 24 h. Provide a value for each of the molecules that follow.
- assay: in vivo
- condition_context: BALB/c nude, mouse, in vivo, iv, total radioactivity, % ID/g Heart
Answers are plain numbers, in %ID/g.

Solved entries:
[
  {
    "molecule": "CC(C)(C)C(=O)CN1C(=O)[C@H](NC(=O)Nc2cccc(C(=O)N[C@@H](CCC(=O)N[C@@H](CCC(=O)N[C@@H](CCC(=O)N[C@@H](CCCCNC(=O)COCCOCCNC(=O)COCCOCCNC(=O)CCC(C(=O)O)N3CCN(CC(=O)O)CCN(CC(=O)O)CCN(CC(=O)O)CC3)C(N)=O)C(=O)O)C(=O)O)C(=O)O)c2)CN(C2CCCCC2)c2ccccc21 (stereo partly drawn) [^177Lu-C-4, metal not drawn, reference compound]",
    "tissue uptake at 24 h (%ID/g)": 0.03
  },
  {
    "molecule": "C[C@@H](O)[C@H](NC(=O)[C@@H]1CSSC[C@H](NC(=O)[C@@H](Cc2ccccc2)NC(=O)CN2CCN(CC(=O)O)CCN(CC(=O)O)CCN(CC(=O)O)CC2)C(=O)N[C@@H](Cc2ccc(O)cc2)C(=O)N[C@H](Cc2c[nH]c3ccccc23)C(=O)N[C@@H](CCCCN)C(=O)N[C@@H]([C@@H](C)O)C(=O)N1)C(=O)O [^177Lu-C-1, metal not drawn, reference compound]",
    "tissue uptake at 24 h (%ID/g)": 0.05
  }
]

Would you kindly look at the next entry?
Requested field: tissue uptake at 24 h. Item: C[C@@H](O)[C@H](NC(=O)[C@@H]1CSSC[C@H](NC(=O)[C@@H](Cc2ccccc2)NC(=O)COCCOCCNC(=O)[C@H](CCCCNC(=O)c2cccc(NC(=O)N[C@@H]3CN(C4CCCCC4)c4ccccc4N(CC(=O)C(C)(C)C)C3=O)c2)NC(=O)CN2CCN(CC(=O)O)CCN(CC(=O)O)CCN(CC(=O)O)CC2)C(=O)N[C@@H](Cc2ccc(O)cc2)C(=O)N[C@H](Cc2c[nH]c3ccccc23)C(=O)N[C@@H](CCCCN)C(=O)N[C@@H]([C@@H](C)O)C(=O)N1)C(=O)O [Compound 177Lu-I-37, metal not drawn]
0.4
